// data source = the supplement of paper PMC9170038

Test system: MS2 coat protein
Assay: apparent KD of MS2 coat protein; higher = weaker reporter binding
Details: Eterna round: R107; input ligand: theophylline 20 uM
Values of apparent KD of MS2 coat protein greater than or equal to 40 nM map to t; values below map to f.

chain	assignedLabel
CGCACAGAGAAUGAUACCAGCGAGGAAGCGACAUGAGGAUCACCCAUGUGCGAAUGAUCCCGCCCUUGGCAGCGUAAGUGAUCCC [ss-theoB-?]	t
UGUAUGUGAUCUGAUACCAGAGUUGAUAAUCUGAGGAUCACCCUGGUAAGGCGAAAGCCACUCCCUUGGCAGCAGAUCGCAUACU	t
CCGGCGCGAUUAUGGGUUUGCUUUUACGAUACCAGCCGCGUUCCGGGCCCUUGGCAGCGUGUAACAUGAGGAUCACCCAUGUUCA [theeternabot_exclusion_MS2_Theo_A_37]	f
GGAGCUACGUCGGCCGCCACUAGCGGUUAUUACGUGUACAUGAGGAUCACCCAUGUAAUAUGGCUUAGGACCGGGACGUAGCUCC [Wolverine]	f
CGGUUGCCACAUGAGGAUCACCCAUGUGAAGGAGCGGCGAAUAAGCCAGGUAGGUCGCGCAUGAAUAAAUCAUGUUGGUGCCGAA [XArg-A 17 V2]	t
UCCUCCUCCGGAAGGAGGAGGAGUUGCGAUACCAGCCCGGAAACGGGCCCUUGGCAGCGCACAUGAGGAUCACCCAUGUCAUGUU [#1 Exclusion - Theophylline A Attempt #7 (HarryS)]	f

Ask | Determine whether this sequence has apparent KD of MS2 coat protein no lower than 40 nM: GCUAGGUCAUCGGCCGCCACUAACGAAGGUUCGAACAUGAGGAUCACCCAUGUGCCACAUGCGCAUAGGACCGGGAUGACCUAGC [SSTB NP+V+V2 #7 +-Same Structure]
Reply | f

Ask | Record AAUAACAUGAGGAUCACCCAUGUAAAAGAUACCAGAUGCAUGAUGAUCCCUUGGCAGCUUAAAACGCGAUUGAUUACAAUCGCGA [Mat - Same State Theophlline A - Mod of Eli - D12] ; criterion: apparent KD of MS2 coat protein no lower than 40 nM. Met?
Reply | t

Ask | Determine whether this sequence has apparent KD of MS2 coat protein no lower than 40 nM: CGAUGCGCAUUAUCCCACUGGUAUGAGUCUCGAGGACCGGUACGGCCGCCACUCGCUACCGUACAUGAGGAUCACCCAUGUAUUA [theeternabot_exclusion_MS2_Trp_A_13]
Reply | f

Ask | Is reported apparent KD of MS2 coat protein greater than or equal to 40 nM here: CCUCAUGAACAUGAGGAUCACCCAUGUACACGAGGACCGGUACGGCCGCCACUCGAAUAAGCUAAAUAUAAAUAAUAAUAAUAGC [5' end split MS2]
Reply | f

Ask | API: above_or_equal(metric=apparent KD of MS2 coat protein, cutoff=40 nM) for item CAAUGCAGGUCGGCCGCCACUACACACAUGAGGAUCACCCAUGUAGUUACUGGGUGAAGUGGCAGUAGGACCGGGACCUGCAUAA [Brourdmod02]
Reply | t

Ask | Reported apparent KD of MS2 coat protein at or above 40 nM? GGGCCCGGGCGCGAGCCCGGGCCCAUUGAUACCAGUGAUAGAGAGCGCCCUUGGCAGCGAAUCCUAACAUGAGGAUCACCCAUGU [5.K]
Reply | t
